Test: Aqueous solubility of compound at pH 6.8 by UV absorbance method
Format: physicochemical
Details: buffer
REPORTED_ENDPOINT: solubility (µg/mL)
Please state the figure in µg/mL; there is no need to write the unit.

// query For the compound shown here, Cc1cc(C)c(NC(=O)c2c(-c3ccc(Cl)cc3)noc2N2CCOCC2)c(C)c1 , give the reported solubility.
// result 0.9
